B1: library; numbered along this chain (parent)
chain: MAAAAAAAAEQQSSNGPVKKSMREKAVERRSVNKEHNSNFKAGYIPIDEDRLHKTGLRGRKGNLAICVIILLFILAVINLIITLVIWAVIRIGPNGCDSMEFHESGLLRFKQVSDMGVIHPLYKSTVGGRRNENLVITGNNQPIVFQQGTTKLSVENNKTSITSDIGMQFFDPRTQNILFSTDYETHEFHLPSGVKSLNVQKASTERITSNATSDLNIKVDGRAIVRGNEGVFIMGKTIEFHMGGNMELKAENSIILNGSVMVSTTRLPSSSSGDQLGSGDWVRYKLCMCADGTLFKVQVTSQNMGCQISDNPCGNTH

Variants of: B1
Experiment: SGCB cell-surface expression functional score (HA stain, bin4 vs bin1, normalised to synonymous) (log10 ratio); higher = more cell-surface SGCB (functional)
Entries and their SGCB cell-surface expression functional score (log10)
Form field (numeric): enter value without unit.

- variant_descriptor: "H190M"
  value_reported: -0.84
- variant_descriptor: "L52I"
  value_reported: -0.3
- variant_descriptor: "G194S"
  value_reported: 0.34
- variant_descriptor: "I208T"
  value_reported: -1.57
- variant_descriptor: "T150L"
  value_reported: -0.19
- variant_descriptor: "C314D"
  value_reported: 0.34

Tell me its SGCB cell-surface expression functional score (log10) given `I119T` as the entry.
-0.97

Tell me its SGCB cell-surface expression functional score (log10) given `M116P` as the entry.
-1.45

Tell me its SGCB cell-surface expression functional score (log10) given `T126G` as the entry.
-0.18

Tell me its SGCB cell-surface expression functional score (log10) given `D50Q` as the entry.
0.04

Tell me its SGCB cell-surface expression functional score (log10) given `V89W` as the entry.
-1.16
